Data provenance is patent US8901072B2.

- Test system: S. aureus ATCC 13709
- Test protocol: In vitro antibacterial susceptibility (MIC, broth microdilution)
- Type: cell-based
- Test conditions: cation-adjusted Mueller-Hinton broth, 37° C., 18 h
A collection of compounds and their measured MIC against S. aureus ATCC 13709, CAMHB
Number in µg/mL, nothing else.

Previously resolved entries follow.
CNC(CC(C)C)C(=O)NC1C(=O)NC(CC(N)=O)C(=O)NC2C(=O)NC3C(=O)NC(C(=O)NC(C(=O)NCCCNCCCCNCCCN)c4cc(O)cc(O)c4-c4cc3ccc4O)C(OC3CC(C)(N)C(O)C(C)O3)c3ccc(c(Cl)c3)Oc3cc2cc(c3OC2OC(CO)C(O)C(O)C2OC2CC(C)(NCc3ccc(-c4ccc(Cl)cc4)cc3)C(O)C(C)O2)Oc2ccc(cc2Cl)C1O (centres unmarked) [Compound 24]    1
CNC(CC(C)C)C(=O)NC1C(=O)NC(CC(N)=O)C(=O)NC2C(=O)NC3C(=O)NC(C(=O)NC(C(=O)OCC[N+](C)(C)C)c4cc(O)cc(O)c4-c4cc3ccc4O)C(OC3CC(C)(N)C(O)C(C)O3)c3ccc(c(Cl)c3)Oc3cc2cc(c3OC2OC(CO)C(O)C(O)C2OC2CC(C)(NCc3ccc(-c4ccc(Cl)cc4)cc3)C(O)C(C)O2)Oc2ccc(cc2Cl)C1O (centres unmarked) [Compound 95]    1
CNC(CC(C)C)C(=O)NC1C(=O)NC(CC(N)=O)C(=O)NC2C(=O)NC3C(=O)NC(C(=O)NC(C(=O)OCC(=O)NCCCNCCCN)c4cc(O)cc(O)c4-c4cc3ccc4O)C(OC3CC(C)(N)C(O)C(C)O3)c3ccc(c(Cl)c3)Oc3cc2cc(c3OC2OC(CO)C(O)C(O)C2OC2CC(C)(NCc3ccc(-c4ccc(Cl)cc4)cc3)C(O)C(C)O2)Oc2ccc(cc2Cl)C1O (centres unmarked) [Compound 66]    2
CNC(CC(C)C)C(=O)NC1C(=O)NC(CC(N)=O)C(=O)NC2C(=O)NC3C(=O)NC(C(=O)NC(C(=O)OCC(=O)NCCCNCCCCNCCCN)c4cc(O)cc(O)c4-c4cc3ccc4O)C(OC3CC(C)(N)C(O)C(C)O3)c3ccc(c(Cl)c3)Oc3cc2cc(c3OC2OC(CO)C(O)C(O)C2OC2CC(C)(NCc3ccc(-c4ccc(Cl)cc4)cc3)C(O)C(C)O2)Oc2ccc(cc2Cl)C1O (centres unmarked) [Compound 28]    2

Next compound, please.
Return MIC against S. aureus ATCC 13709, CAMHB measured with S. aureus ATCC 13709 given this compound: CC(C)CC(C(=O)NC1C(=O)NC(CC(N)=O)C(=O)NC2C(=O)NC3C(=O)NC(C(=O)NC(C(=O)O)c4cc(O)cc(O)c4-c4cc3ccc4O)C(OC3CC(C)(N)C(O)C(C)O3)c3ccc(c(Cl)c3)Oc3cc2cc(c3OC2OC(CO)C(O)C(O)C2OC2CC(C)(NCc3ccc(-c4ccc(Cl)cc4)cc3)C(O)C(C)O2)Oc2ccc(cc2Cl)C1O)N(C)C(=O)OCOC(=O)CNCCCNCCCCNCCCN (centres unmarked) [Compound 38]
2

---

- Test system: S. aureus ATCC 13709
- Test protocol: In vitro antibacterial susceptibility (MIC, broth microdilution)
- Assay type: cell-based
- Test conditions: cation-adjusted Mueller-Hinton broth, 37° C., 18 h
Each entry below carries its recorded MIC against S. aureus ATCC 13709, CAMHB.
Field: numeric (mg/L). Do not append units.

Before answering, review these 2 worked examples.
CNC(CC(C)C)C(=O)NC1C(=O)NC(CC(N)=O)C(=O)NC2C(=O)NC3C(=O)NC(C(=O)NC(C(=O)OCC(=O)N(C)CCN(C)C)c4cc(O)cc(O)c4-c4cc3ccc4O)C(OC3CC(C)(N)C(O)C(C)O3)c3ccc(c(Cl)c3)Oc3cc2cc(c3OC2OC(CO)C(O)C(O)C2OC2CC(C)(NCc3ccc(-c4ccc(Cl)cc4)cc3)C(O)C(C)O2)Oc2ccc(cc2Cl)C1O (stereo not drawn)    2
CC(C)CC(C(=O)NC1C(=O)NC(CC(N)=O)C(=O)NC2C(=O)NC3C(=O)NC(C(=O)NC(C(=O)O)c4cc(O)cc(O)c4-c4cc3ccc4O)C(OC3CC(C)(N)C(O)C(C)O3)c3ccc(c(Cl)c3)Oc3cc2cc(c3OC2OC(CO)C(O)C(O)C2OC2CC(C)(NCc3ccc(-c4ccc(Cl)cc4)cc3)C(O)C(C)O2)Oc2ccc(cc2Cl)C1O)N(C)C(=O)OCOC(=O)CCC(=O)N(CC(=O)O)CC(=O)O (stereo not drawn)    4

Now, please, on to the next molecule.
# MIC against S. aureus ATCC 13709, CAMHB lookup, item CNC(CC(C)C)C(=O)NC1C(=O)NC(CC(N)=O)C(=O)NC2C(=O)NC3C(=O)NC(C(=O)NC(C(=O)SCC[N+](C)(C)C)c4cc(O)cc(O)c4-c4cc3ccc4O)C(OC3CC(C)(N)C(O)C(C)O3)c3ccc(c(Cl)c3)Oc3cc2cc(c3OC2OC(CO)C(O)C(O)C2OC2CC(C)(NCc3ccc(-c4ccc(Cl)cc4)cc3)C(O)C(C)O2)Oc2ccc(cc2Cl)C1O (stereo not drawn)
1
